Target: Thyrotropin receptor (Homo sapiens)
Assay: qHTS assay to identify small molecule antagonists of the thyroid stimulating hormone receptor (TSHR) signaling pathway (AID 1259385); further: nearly all actives have a fitted effect of over 20% in size
Conditions: TSHR-HEK293 cAMP HTRF, TSH-stimulated antagonist mode; series mostly up to 92.4 µM
Protocol: U.S. Tox21 Program National Center for Advancing Translational Sciences [NCATS] NIH Chemical Genomics Center [NCGC] U.S. Environmental Protection Agency [EPA] National Institutes of Environmental Health Sciences [NIEHS] National Toxicology Program [NTP] […] Tox21 Assay Protocol Summary: TSHR-Hek293 cells were dispensed at 800 cells/4uL/well in 1536-well white plates using a Multidrop dispenser. […] The fluorescence intensity in the plates was measured using an Envision plate reader. […]
Inconclusive results are not listed. Calls of active or inactive are those of the source. The call rests on the fitted dose curve.
measured parameter: activity change, negative = inhibition

(Q) Recorded activity change, negative = inhibition of `C=CC(=O)N1CCOCC1` , please.
(A) inactive

(Q) Recorded activity change, negative = inhibition of `COc1ccc(NC(C)=O)cc1` , please.
(A) inactive

(Q) Recorded activity change, negative = inhibition of `O=C(O)c1ccccc1-c1ccc(C(F)(F)F)cc1` , please.
(A) inactive

(Q) Recorded activity change, negative = inhibition of `CC(C)(C)C(=O)/C=C/c1ccc(Cl)cc1` , please.
(A) inactive

(Q) Recorded activity change, negative = inhibition of `CCCCCCCCC=O` , please.
(A) inactive

Continuing:
(Q) Recorded activity change, negative = inhibition of `CCC(=O)Nc1cccc(N)c1` , please.
(A) inactive

(Q) Recorded activity change, negative = inhibition of `CCCCc1ccc2cccc(S(=O)(=O)O)c2c1` , please.
(A) inactive

(Q) Recorded activity change, negative = inhibition of `O=C1CC2(CCCC2)CC(=O)N1` , please.
(A) inactive

(Q) Recorded activity change, negative = inhibition of `CC(C)=CC(=O)O` , please.
(A) inactive

(Q) Recorded activity change, negative = inhibition of CCCC(C)C(=O)O (stereo not given) , please.
(A) inactive

(Q) Recorded activity change, negative = inhibition of `CCCCCCCCCCCCCCC` , please.
(A) inactive

(Q) Recorded activity change, negative = inhibition of `NC(N)=NS(=O)(=O)c1ccc(N)cc1` , please.
(A) inactive
